test: Half life in rat at 2 mg/kg, po and 2 mg/kg, iv; type: ADME, organism-based; details: in vivo
measured-attribute: half-life (min)

// below: answered compounds
CCCOCCn1c(=O)c(NCC(=O)N2CCN(CC)CC2)nc2cnc(-c3ccc(OC)nc3)cc21 :: 84
CCCOCCn1c(=O)c(NC[C@H](C)O)nc2cnc(-c3ccc(OC)nc3)cc21 :: 78
CCCOCCn1c(=O)c(N[C@H](CC)CO)nc2cnc(-c3ccc(OC)nc3)cc21 :: 108

(A) CCCOCCn1c(=O)c(NCC(=O)NC)nc2ncc(-c3ccc(OC)nc3)cc21
(B) CCCOCCn1c(=O)c(NCC(=O)N2CCC(O)CC2)nc2cnc(-c3ccc(OC)nc3)cc21
Sorting ascending by half-life, which comes first: A or B ? Output the label that corresponds to your choice. A
(A: 48 min, B: 102 min)

---

experiment: Oral bioavailability in rat at 2 mg/kg; type: ADME, organism-based; details: in vivo
measured-attribute: bioavailability (%)

// below: answered molecules
CCCOCCn1c(=O)c(N[C@H]2CC[C@H](O)CC2)nc2cnc(-c3ccc(OC)nc3)cc21 :: 50
CCCOCCn1c(=O)c(NCC(=O)NC)nc2ncc(-c3ccc(OC)nc3)cc21 :: 39
CCCOCCn1c(=O)c(NCCNCCO)nc2cnc(-c3ccc(OC)nc3)cc21 :: 53

(A) CCCOCCn1c(=O)c(NCC(=O)N(C)C)nc2ncc(-c3ccc(OC)nc3)cc21
(B) CCCOCCn1c(=O)c(NCC2CCOCC2)nc2ncc(-c3ccc(OC)nc3)cc21
Sorting ascending by bioavailability, which comes first: A or B ? Output the label that corresponds to your choice. B

---

molecular target: Rod cGMP-specific 3',5'-cyclic phosphodiesterase subunit alpha (Homo sapiens); experiment: Inhibition of PDE6
Sequence (P16499 whole entry): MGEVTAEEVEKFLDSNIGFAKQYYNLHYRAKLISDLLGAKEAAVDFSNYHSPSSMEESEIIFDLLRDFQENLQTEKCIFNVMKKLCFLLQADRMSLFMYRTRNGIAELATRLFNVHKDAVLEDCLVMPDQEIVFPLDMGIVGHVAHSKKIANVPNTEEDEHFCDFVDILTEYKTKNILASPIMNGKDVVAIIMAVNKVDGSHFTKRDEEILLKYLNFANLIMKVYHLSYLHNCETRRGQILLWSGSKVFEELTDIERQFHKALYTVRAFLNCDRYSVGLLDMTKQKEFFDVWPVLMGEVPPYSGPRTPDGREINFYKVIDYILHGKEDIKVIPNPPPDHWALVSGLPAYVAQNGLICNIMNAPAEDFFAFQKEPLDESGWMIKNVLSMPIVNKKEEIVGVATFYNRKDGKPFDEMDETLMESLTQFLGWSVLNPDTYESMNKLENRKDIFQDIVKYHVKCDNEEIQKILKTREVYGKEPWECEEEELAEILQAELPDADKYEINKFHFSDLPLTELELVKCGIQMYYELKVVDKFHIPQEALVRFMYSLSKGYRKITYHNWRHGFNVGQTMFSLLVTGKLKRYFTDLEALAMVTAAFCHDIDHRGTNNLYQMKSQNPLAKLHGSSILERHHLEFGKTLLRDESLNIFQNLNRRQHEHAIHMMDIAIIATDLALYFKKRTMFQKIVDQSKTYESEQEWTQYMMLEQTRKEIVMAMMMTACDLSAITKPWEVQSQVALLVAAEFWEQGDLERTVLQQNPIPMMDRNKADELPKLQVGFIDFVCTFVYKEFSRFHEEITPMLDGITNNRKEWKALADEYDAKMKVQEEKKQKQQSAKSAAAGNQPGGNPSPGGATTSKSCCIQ
measured-attribute: IC50 (nM)

// below: answered molecules
CCCOCCn1c(=O)c(N[C@@H](C)CO)nc2cnc(-c3ccc(OC)nc3)cc21 :: 17.9
CCCOCCn1c(=O)c(NCCO)nc2ncc(-c3ccc(OC)nc3)cc21 :: 114
CCCOCCn1c(=O)c(NCC(=O)NC)nc2ncc(-c3ccc(OC)nc3)cc21 :: 115
CCCOCCn1c(=O)c(NCc2ccccn2)nc2cnc(-c3ccc(OC)nc3)cc21 :: 10.8
CCCOCCn1c(=O)c(NCC(=O)N2CCC(O)CC2)nc2cnc(-c3ccc(OC)nc3)cc21 :: 24.6

(A) CCCOCCn1c(=O)c(NCc2cnccn2)nc2ncc(-c3ccc(OC)nc3)cc21
(B) CCCOCCn1c(=O)c(NCC(=O)N(C)C)nc2ncc(-c3ccc(OC)nc3)cc21
(C) CCCOCCn1c(=O)c(NC[C@@H](C)O)nc2ncc(-c3ccc(OC)nc3)cc21
(D) CCCOCCn1c(=O)c(NCc2ccccn2)nc2ncc(-c3ccc(OC)nc3)cc21
Put these in order: smallest IC50 first, largest last. Note for the reader: the ranking is given by listing the labels in the order requested. A, D, C, B

---

Recorded pIC50 values for a group of molecules are listed next.
target: High affinity cAMP-specific and IBMX-insensitive 3',5'-cyclic phosphodiesterase 8A (Homo sapiens)
Sequence (O60658 whole entry): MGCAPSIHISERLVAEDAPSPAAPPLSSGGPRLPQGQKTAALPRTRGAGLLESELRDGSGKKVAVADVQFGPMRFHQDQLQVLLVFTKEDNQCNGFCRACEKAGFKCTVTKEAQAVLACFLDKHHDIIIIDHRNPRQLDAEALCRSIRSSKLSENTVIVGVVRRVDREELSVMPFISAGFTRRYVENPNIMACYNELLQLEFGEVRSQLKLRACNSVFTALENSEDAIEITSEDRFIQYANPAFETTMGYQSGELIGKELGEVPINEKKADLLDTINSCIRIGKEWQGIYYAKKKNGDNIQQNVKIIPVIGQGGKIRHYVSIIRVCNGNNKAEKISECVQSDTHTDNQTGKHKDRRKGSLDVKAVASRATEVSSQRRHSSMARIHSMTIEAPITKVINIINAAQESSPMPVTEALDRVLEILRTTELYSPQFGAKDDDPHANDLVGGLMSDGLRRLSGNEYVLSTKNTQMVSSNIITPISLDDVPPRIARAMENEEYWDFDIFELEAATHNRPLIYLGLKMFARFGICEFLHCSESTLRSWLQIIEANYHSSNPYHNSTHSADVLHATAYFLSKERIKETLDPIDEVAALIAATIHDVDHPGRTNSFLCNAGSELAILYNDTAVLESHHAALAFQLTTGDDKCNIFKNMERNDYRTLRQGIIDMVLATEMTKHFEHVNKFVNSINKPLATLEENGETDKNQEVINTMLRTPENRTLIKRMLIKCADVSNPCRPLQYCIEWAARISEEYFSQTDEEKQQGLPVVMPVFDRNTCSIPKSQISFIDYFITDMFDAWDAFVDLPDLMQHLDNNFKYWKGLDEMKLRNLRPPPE
pIC50: −log10 of the molar value.

CCCOCCn1c(=O)c(NCCN2CCOCC2)nc2cnc(-c3ccc(OC)nc3)cc21 :: < 5.70

// below: pIC50 requested for another molecule
I have this molecule here, "CCCOCCn1c(=O)c(N[C@H]2CC[C@H](O)CC2)nc2cnc(-c3ccc(OC)nc3)cc21" , and I need its recorded pIC50. < 5.70
